Each entry below lists one item and its recorded IC50 value.
System: A549
method_notes: Cytotoxicity against human A549 cells by MTT assay
Assay type: functional, cell-based
experimental_endpoint: IC50

> print(dat)
                                   compound  target.under.test  experimental.endpoint    reported
1  OC[C@H]1O[C@@H](n2cnc3cnc(NCc4cc(O)c(O)c(Br)c4Br)nc32)[C@H](O)[C@@H]1O               A549                   IC50  > 10 µg/mL
2  COC(=O)C1CCC(=O)N1Cc1cc(O)c(O)c(Br)c1Cc1cc(O)c(O)c(Br)c1Br (centres undefined)               A549                   IC50  > 10 µg/mL
3  COC(=O)C1CCC(=O)N1Cc1cc(O)c(O)c(Br)c1Br (centres undefined)               A549                   IC50  > 10 µg/mL
4  O=C(O)C1CCC(=O)N1Cc1cc(O)c(O)c(Br)c1Br (centres undefined)               A549                   IC50  > 10 µg/mL

* * *

Test system: MCF7
method_notes: Cytotoxicity against human MCF7 cells by MTT assay
Assay type: functional, cell-based
Each entry below lists one item and its recorded IC50 value.
experimental_endpoint: IC50

> print(dat)
                                   compound  experimental.endpoint    reported
1  O=C(O)C1CCC(=O)N1Cc1cc(O)c(O)c(Br)c1Br (centres undefined)                   IC50  > 10 µg/mL
2  COC(=O)C1CCC(=O)N1Cc1cc(O)c(O)c(Br)c1Br (centres undefined)                   IC50  > 10 µg/mL
3  COC(=O)C1CCC(=O)N1Cc1cc(O)c(O)c(Br)c1Cc1cc(O)c(O)c(Br)c1Br (centres undefined)                   IC50  > 10 µg/mL
4  OC[C@H]1O[C@@H](n2cnc3cnc(NCc4cc(O)c(O)c(Br)c4Br)nc32)[C@H](O)[C@@H]1O                   IC50  > 10 µg/mL
